Biological target: T1, IL-18 binding protein (IL-18BP) (UniProt O95998 31-194)
T1 sequence (looked up): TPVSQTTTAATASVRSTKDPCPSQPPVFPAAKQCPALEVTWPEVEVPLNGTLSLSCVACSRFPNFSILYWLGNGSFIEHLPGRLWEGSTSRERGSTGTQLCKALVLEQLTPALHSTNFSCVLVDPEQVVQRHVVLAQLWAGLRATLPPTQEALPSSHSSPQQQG
Experiment: cell-based or functional assay
Overview of recorded Ratio (-BP/+BP), DF-5000006 for various binders

IL-18 variant G3R, E6D, D54A, S55Q, T63S, N91K, R104P (ligand) YFRKLDSKLSVIRNLNDQVLFIDQGNRPLFEDMTDSDMRDNAPRTIFIISMYKAQQPRGMAVSISVKSEKISTLSSENKIISFKEMNPPDKIKDTKSDIIFFQPSVPGHDNKMQFESSSYEGYFLASEKERDLFKLILKKEDELGDRSIMFTVQNED = 0.98
IL-18 variant G3Q, E6H, S7Y, D23A, R27S, D54S, S55R, T63F, N91F, R104Q (ligand) YFQKLHYKLSVIRNLNDQVLFIAQGNSPLFEDMTDSDMRDNAPRTIFIISMYKSRQPRGMAVFISVKSEKISTLSSENKIISFKEMNPPDFIKDTKSDIIFFQQSVPGHDNKMQFESSSYEGYFLASEKERDLFKLILKKEDELGDRSIMFTVQNED = 1.01

Kindly review the next binder as well.
The binder IL-18 variant G3P, E6K, K53T, D54Y, S55V, T63I, N91I (ligand) YFPKLKSKLSVIRNLNDQVLFIDQGNRPLFEDMTDSDMRDNAPRTIFIISMYTYVQPRGMAVIISVKSEKISTLSSENKIISFKEMNPPDIIKDTKSDIIFFQRSVPGHDNKMQFESSSYEGYFLASEKERDLFKLILKKEDELGDRSIMFTVQNED showed Ratio (-BP/+BP), DF-5000006 equal to 1.01
